System: phosphorylation of Serine 473 in Akt
Assay: In Vitro Phospho-Ser473 Akt Assay in MDA-MB-468 cells
Type: cell-based
Conditions: Homo sapiens, MDA-MB-468, read-out: IC50 values against mTOR, phospho-Ser473 Akt assay, MDA-MB-468 cells
PROPERTY_LABEL: IC50

MOLECULE | EXPERIMENTAL_TARGET | IC50
COc1ccc(-c2ccc3c(N4CCOC[C@@H]4C)nc(N4CCSCC4)nc3n2)cc1CO [Example 18ch] | phosphorylation of Serine 473 in Akt | < 0.1 µM
CCNC(=O)c1cc(-c2ccc3c(N4CCOC[C@@H]4C)nc(N4CCOC[C@@H]4C)nc3n2)ccc1F | phosphorylation of Serine 473 in Akt | < 0.1 µM
CCOCc1cccc(-c2ccc3c(N4CCOC[C@@H]4C)nc(N4CCOC[C@@H]4C)nc3n2)c1 | phosphorylation of Serine 473 in Akt | < 0.3 µM
CCCNC(=O)c1cc(-c2ccc3c(N4CCOC[C@@H]4C)nc(N4CCOC[C@@H]4C)nc3n2)ccc1F | phosphorylation of Serine 473 in Akt | < 0.1 µM

Provide the reported IC50 of each entry below, same order.
1. C[C@@H]1CN(c2nc(N3CCOC[C@@H]3C)c3ccc(-c4ccc(Cl)cc4)nc3n2)C[C@H](C)O1 [Example 18dh]
2. CNCc1cccc(-c2ccc3c(N4CCOC[C@@H]4C)nc(N4CCOC[C@@H]4C)nc3n2)c1

[out]
1. < 0.3 µM
2. < 0.1 µM
